# tested.system: T1, Puf4 RNA-binding domain (Saccharomyces cerevisiae, UniProt P25339 537-888)
# T1 sequence: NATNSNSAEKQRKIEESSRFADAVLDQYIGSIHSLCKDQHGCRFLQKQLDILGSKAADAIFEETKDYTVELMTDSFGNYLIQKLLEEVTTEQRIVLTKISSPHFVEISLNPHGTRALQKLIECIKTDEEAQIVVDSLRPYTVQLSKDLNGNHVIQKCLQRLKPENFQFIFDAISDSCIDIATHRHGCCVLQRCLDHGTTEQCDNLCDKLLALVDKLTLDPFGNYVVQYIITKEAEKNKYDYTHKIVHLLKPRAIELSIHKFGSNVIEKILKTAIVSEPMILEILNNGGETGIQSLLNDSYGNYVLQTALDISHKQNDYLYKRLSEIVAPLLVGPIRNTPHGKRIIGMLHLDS
# protocol: competition EMSA; 25 C; vs labeled Puf4_HO, 0.45 nM active Puf4; 190-210 nM across 10-110 min; 230 nM with upper limit of labeled RNA; 20 mM HEPES-Na or HEPES-K pH 7.4, 2 mM MgCl2, 100 mM KOAc, 2 mM DTT, 0.2% Tween 20, 5% glycerol, 0.1 mg/ml BSA; 25 or 0 C; native 20% gel at 4-6 C
# assay.conditions: protein: recombinant; tags: C-terminal SNAP tag; N-terminal 6xHis removed by TEV; label: none; single strand
pKd: −log10 of the molar value.

| binder | pKd |
| --- | --- |
| CGUAUAUUA (ssRNA) [U1C mutant competitor RNA] | 6.69 |
